pIC50: −log10 of the molar value.
# collection of pIC50 values tested on Coagulation factor X (Homo sapiens, UniProt P00742)
# Sequence (P00742 41-179 limits assumed): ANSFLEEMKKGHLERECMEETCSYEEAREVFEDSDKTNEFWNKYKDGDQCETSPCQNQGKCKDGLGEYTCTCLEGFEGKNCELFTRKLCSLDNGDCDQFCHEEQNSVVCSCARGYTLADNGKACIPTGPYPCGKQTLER
# Sequence (P00742 235-488 limits assumed): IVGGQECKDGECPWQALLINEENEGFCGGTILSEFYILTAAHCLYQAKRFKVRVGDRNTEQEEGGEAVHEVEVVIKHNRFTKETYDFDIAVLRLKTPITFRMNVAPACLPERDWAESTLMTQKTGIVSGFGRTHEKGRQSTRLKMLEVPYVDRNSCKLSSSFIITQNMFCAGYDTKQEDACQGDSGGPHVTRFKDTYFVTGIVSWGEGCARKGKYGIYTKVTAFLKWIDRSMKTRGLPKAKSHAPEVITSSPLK

SMILES_DATA | TARGET_OR_SYSTEM | pIC50
C[C@@]1(CO)C[C@@H](O)C[C@]2(C)[C@@H]1CC[C@@]13O[C@H](CO)[C@@](C)(CC[C@@H]21)[C@H]3Br | Coagulation factor X (Homo sapiens, UniProt P00742) | 5.10
C[C@@]1(CO)C=C2CC[C@@H]3[C@](C)(CO)C[C@@H](O)C[C@@]3(C)[C@@H]2CC1 | Coagulation factor X (Homo sapiens, UniProt P00742) | 6.02
C[C@]12CC[C@@H]3[C@](CC[C@@H]4[C@](C)(CO)C[C@@H](O)C[C@]43C)(C1)OC2 | Coagulation factor X (Homo sapiens, UniProt P00742) | 5.13
C[C@]12CC[C@@H]3[C@](CC[C@@H]4[C@](C)(CO)C[C@@H](O)C[C@]43C)(C1)O[C@H]2CO | Coagulation factor X (Homo sapiens, UniProt P00742) | 5.21
